The reported numbers originate from ChEMBL document CHEMBL1811790.

Consider the following molecules and their measured deltaA readings.
- Tested on: RAW264.7
- procedure-summary: Acute toxicity in mouse RAW264.7 cells assessed as OD540 absorbance incubated for 24 hrs by MTT assay
- Assay type: cell-based
- recorded-conditions: raw264.7, 24 h
experimental-endpoint: deltaA

- input-smiles: "Clc1ccc(OCc2nnc(-c3ccc4c(c3)OCCO4)o2)cc1"
  experimental-endpoint: "deltaA"
  result: 0.89
- input-smiles: "C(=C\\c1nnc(-c2ccc3c(c2)OCCO3)o1)/c1ccccc1"
  experimental-endpoint: "deltaA"
  result: 1.15
- input-smiles: "COc1cccc(Cc2nnc(-c3ccc4c(c3)OCCO4)o2)c1"
  experimental-endpoint: "deltaA"
  result: 0.76
- input-smiles: "Brc1ccc(Cc2nnc(-c3ccc4c(c3)OCCO4)o2)cc1"
  experimental-endpoint: "deltaA"
  result: 0.99
- input-smiles: "Cc1ccccc1-c1nnc(-c2ccc3c(c2)OCCO3)o1"
  experimental-endpoint: "deltaA"
  result: 1.03
- input-smiles: "Clc1cccc(Cc2nnc(-c3ccc4c(c3)OCCO4)o2)c1"
  experimental-endpoint: "deltaA"
  result: 0.2
- input-smiles: "c1ccc(OCc2nnc(-c3ccc4c(c3)OCCO4)o2)cc1"
  experimental-endpoint: "deltaA"
  result: 0.36
